molecular target: UniProtKB P35503; assay: in vitro; details: pH 7.5, % of control metabolism, raloxifene G2
test readout: activity at 15 min, 10 µM (%)
Reply numerically in %, unit not repeated.

input: Please report the recorded activity at 15 min, 10 µM for COc1cc(C2Oc3cc([C@H]4Oc5cc(O)cc(O)c5C(=O)[C@@H]4O)ccc3OC2CO)ccc1O (stereo partly shown) [Silibinin] .
output: 56

###

target: UGT1A3 (Homo sapiens); experiment: in vitro; conditions: pH 7.5, % of control metabolism, raloxifene G2
test readout: activity at 15 min, 25 µM
Your answer should be a number followed by the unit of measure.

input: Please report the recorded activity at 15 min, 25 µM for COc1cc(C2Oc3cc([C@H]4Oc5cc(O)cc(O)c5C(=O)[C@@H]4O)ccc3OC2CO)ccc1O (stereo partly shown) [Silibinin] .
output: 32%

###

test system: UGT enzymes of pooled human jejunum microsomes; assay: Inhibition of raloxifene glucuronidation (G1, G2) in pooled human jejunum microsomes; type: biochemical; conditions: jejunum HJ61; inhibitor 50 μM
test readout: % of control metabolism, raloxifene G2

As a guide, the following entries are already answered.
> print(dat)
                                   molecule                            test.readout   observed
1  CCCCCCCCOC(=O)c1cc(O)c(O)c(O)c1 [Octyl gallate]  % of control metabolism, raloxifene G2  137 (9) %
2  O=c1c(O)c(-c2ccc(O)c(O)c2)oc2cc(O)cc(O)c12 [Quercetin]  % of control metabolism, raloxifene G2   37 (2) %
3  O=C(O)c1cc(-c2ccc(F)cc2F)ccc1O [Diflunisal, reference compound]  % of control metabolism, raloxifene G2   93 (6) %

input: Please report the recorded % of control metabolism, raloxifene G2 for O=C(O[C@@H]1Cc2c(O)cc(O)cc2O[C@H]1c1cc(O)c(O)c(O)c1)c1cc(O)c(O)c(O)c1 [Gallocatechin gallate] .
output: 10 (0), 10 (0) %

input: Please report the recorded % of control metabolism, raloxifene G2 for O=C(O[C@@H]1Cc2c(O)cc(O)cc2O[C@@H]1c1ccc(O)c(O)c1)c1cc(O)c(O)c(O)c1 [Epicatechin gallate] .
output: 40 (3) %

input: Please report the recorded % of control metabolism, raloxifene G2 for C=CCc1ccc(O)c(OC)c1 [Eugenol] .
output: 96 (5) %

input: Please report the recorded % of control metabolism, raloxifene G2 for O=C(O[C@@H]1Cc2c(O)cc(O)cc2O[C@@H]1c1cc(O)c(O)c(O)c1)c1cc(O)c(O)c(O)c1 [Epigallocatechin gallate] .
output: 35 (4) %

###

system: UGT enzymes of human liver microsomes; test: Inhibition of raloxifene glucuronidation (G1, G2) in human liver microsomes; assay type: biochemical; details: G2; inhibitor 25 μM; raloxifene 50 μM, human liver microsomes 250 μg/ml, 15 min
The entries below are paired with their reported % of control metabolism (SD, n = 3), raloxifene glucuronide G2.

> print(dat)
                                   compound  observed
1  O=C(O[C@@H]1Cc2c(O)cc(O)cc2O[C@@H]1c1cc(O)c(O)c(O)c1)c1cc(O)c(O)c(O)c1 [Epigallocatechin gallate]  63 (1) %
2  O=C(O)c1cc(-c2ccc(F)cc2F)ccc1O [Diflunisal, reference compound]  66 (1) %
3  O=C(O[C@@H]1Cc2c(O)cc(O)cc2O[C@@H]1c1ccc(O)c(O)c1)c1cc(O)c(O)c(O)c1 [Epicatechin gallate]  55 (5) %

Turning now to a further compound:
input: Provide the documented % of control metabolism (SD, n = 3), raloxifene glucuronide G2 with UGT enzymes of human liver microsomes as the system for CCCOC(=O)c1cc(O)c(O)c(O)c1 [Propyl gallate]
output: 60 (4) %

###

tested on: UGT enzymes of human liver microsomes; construct: residual metabolism (percentage of control), labetalol LG1; other: labetalol 50 μM; residual metabolism (percentage of control), labetalol LG1; residual metabolism (percentage of control), labetalol LG2; inhi; assay: Inhibition of labetalol glucuronidation (LG1, LG2) in human liver microsomes; assay type: biochemical; conditions: labetalol 50 μM; inhibitor 100 μM
test readout: residual metabolism (percentage of control), labetalol LG2

> print(dat)
                                   compound  observed
1  O=C(O[C@@H]1Cc2c(O)cc(O)cc2O[C@@H]1c1cc(O)c(O)c(O)c1)c1cc(O)c(O)c(O)c1 [Epigallocatechin gallate]  52 (5) %

input: Please report the recorded residual metabolism (percentage of control), labetalol LG2 for "C=CCc1ccc(O)c(OC)c1" .
output: 75 (4) %

input: Please report the recorded residual metabolism (percentage of control), labetalol LG2 for O=C(O[C@@H]1Cc2c(O)cc(O)cc2O[C@@H]1c1ccc(O)c(O)c1)c1cc(O)c(O)c(O)c1 [Epicatechin gallate] .
output: 86 (2) %

input: Please report the recorded residual metabolism (percentage of control), labetalol LG2 for Oc1cc(O)c2c(c1)O[C@H](c1cc(O)c(O)c(O)c1)[C@H](O)C2 [Epigallocatechin] .
output: 87 (5) %

###

Target: UniProtKB P35503
Sequence (P35503 29-534): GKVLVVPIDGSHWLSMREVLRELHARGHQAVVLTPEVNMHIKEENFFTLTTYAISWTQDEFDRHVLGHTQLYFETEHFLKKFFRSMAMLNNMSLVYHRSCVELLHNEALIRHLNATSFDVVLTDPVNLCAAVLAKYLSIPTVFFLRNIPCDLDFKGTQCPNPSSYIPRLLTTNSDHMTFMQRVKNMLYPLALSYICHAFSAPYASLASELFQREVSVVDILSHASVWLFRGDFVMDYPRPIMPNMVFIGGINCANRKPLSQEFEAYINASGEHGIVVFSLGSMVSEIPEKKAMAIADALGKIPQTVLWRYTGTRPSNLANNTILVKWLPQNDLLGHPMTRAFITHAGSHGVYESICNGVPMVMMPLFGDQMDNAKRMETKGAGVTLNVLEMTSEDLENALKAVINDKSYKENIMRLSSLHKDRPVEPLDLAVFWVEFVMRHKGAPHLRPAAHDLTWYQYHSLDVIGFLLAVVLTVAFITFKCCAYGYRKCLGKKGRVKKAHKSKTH
Test: in vitro
Details: pH 7.5, Inhibition of raloxifene glucuronidation, G1, UGT1A3
activity at 15 min, 50 µM less than 70% is Criterion met; activity at 15 min, 50 µM greater than or equal to 70% is Criterion not met.

Take a look at these entries with their results.
> print(dat)
                                   compound     assigned.class
1  O=C(O)Cc1ccccc1Nc1c(Cl)cccc1Cl [Diclofenac, reference compound]  Criterion not met
2  COc1cc(C2Oc3cc([C@H]4Oc5cc(O)cc(O)c5C(=O)[C@@H]4O)ccc3OC2CO)ccc1O (stereo partly shown) [Silibinin]      Criterion met
3  O=C(O[C@@H]1Cc2c(O)cc(O)cc2O[C@@H]1c1ccc(O)c(O)c1)c1cc(O)c(O)c(O)c1 [Epicatechin gallate]      Criterion met
4  O=C(O)c1cc(-c2ccc(F)cc2F)ccc1O [Diflunisal, reference compound]  Criterion not met
5             C=CCc1ccc(O)c(OC)c1 [Eugenol]  Criterion not met

input: Would you kindly verify if activity at 15 min, 50 µM of COc1c(C)c2c(c(O)c1C/C=C(\C)CCC(=O)O)C(=O)OC2 [Mycophenolic acid, reference compound] is strictly less than 70%?
output: Criterion not met

input: Would you kindly verify if activity at 15 min, 50 µM of CCCOC(=O)c1cc(O)c(O)c(O)c1 [Propyl gallate] is strictly less than 70%?
output: Criterion met

###

system: UGT enzymes of human liver microsomes; construct: percentage of control metabolism, 7-HFC glucuronidation; percentage of control metabolism, 7-HFC glucuronidation; test: Inhibition of 7-HFC glucuronidation in human liver microsomes; format: biochemical; conditions: inhibitor 100 μM; 7-HFC 50 μM, human liver microsomes 100 μg/ml, 15 min
test readout: % of control metabolism (SD, n = 3), 7-HFC glucuronidation

As a guide, the following entries are already answered.
molecule	measurement target	observed
O=C(O)c1ccccc1O [Salicylic acid]	UGT enzymes of human liver microsomes	84 (1) %
O=C(O[C@@H]1Cc2c(O)cc(O)cc2O[C@@H]1c1cc(O)c(O)c(O)c1)c1cc(O)c(O)c(O)c1 [Epigallocatechin gallate]	UGT enzymes of human liver microsomes	67 (1) %
CCCCC/C=C\C/C=C\CCCCCCCC(=O)O [Linoleic acid]	UGT enzymes of human liver microsomes	86 (3) %
O=C(O)c1cc(-c2ccc(F)cc2F)ccc1O [Diflunisal, reference compound]	UGT enzymes of human liver microsomes	77 (2) %
COc1cc(CNC(=O)CCCCCCC(C)C)ccc1O [Dihydrocapsaicin]	UGT enzymes of human liver microsomes	60 (3) %

input: Please report the recorded % of control metabolism (SD, n = 3), 7-HFC glucuronidation for CC(=O)OC1CC(C)CCC1C(C)C (single isomer, unassigned; (-)) [(−)-Menthyl acetate] .
output: 86 (2) %

input: Please report the recorded % of control metabolism (SD, n = 3), 7-HFC glucuronidation for O=C(O[C@@H]1Cc2c(O)cc(O)cc2O[C@@H]1c1ccc(O)c(O)c1)c1cc(O)c(O)c(O)c1 [Epicatechin gallate] .
output: 67 (1) %

input: Please report the recorded % of control metabolism (SD, n = 3), 7-HFC glucuronidation for O=C(OC[C@H]1O[C@@H](OC(=O)c2cc(O)c(O)c(OC(=O)c3cc(O)c(O)c(O)c3)c2)[C@H](OC(=O)c2cc(O)c(O)c(OC(=O)c3cc(O)c(O)c(O)c3)c2)[C@@H](OC(=O)c2cc(O)c(O)c(OC(=O)c3cc(O)c(O)c(O)c3)c2)[C@@H]1OC(=O)c1cc(O)c(O)c(OC(=O)c2cc(O)c(O)c(O)c2)c1)c1cc(O)c(O)c(OC(=O)c2cc(O)c(O)c(O)c2)c1 [Tannic acid] .
output: 0 (0) %

input: Please report the recorded % of control metabolism (SD, n = 3), 7-HFC glucuronidation for O=c1c(O)c(-c2ccc(O)c(O)c2)oc2cc(O)cc(O)c12 [Quercetin] .
output: 58 (1) %

input: Please report the recorded % of control metabolism (SD, n = 3), 7-HFC glucuronidation for CCCCCCCCC(=O)NCc1ccc(O)c(OC)c1 [N-Vanillylnonanamide] .
output: 69 (1) %

input: Please report the recorded % of control metabolism (SD, n = 3), 7-HFC glucuronidation for CCCCCCCCCCCCCCCC(=O)OC[C@H](O)[C@H]1OC(=O)C(O)=C1O [Ascorbyl palmitate] .
output: 64 (1) %

input: Please report the recorded % of control metabolism (SD, n = 3), 7-HFC glucuronidation for Cc1ccc(C(C)C)cc1O [Carvacrol] .
output: 79 (1) %

input: Please report the recorded % of control metabolism (SD, n = 3), 7-HFC glucuronidation for CCCCCCCCCCCCCCCC(=O)OC/C=C(C)/C=C/C=C(C)/C=C/C1=C(C)CCCC1(C)C [Retinol palmitate] .
output: 90 (3) %

input: Please report the recorded % of control metabolism (SD, n = 3), 7-HFC glucuronidation for COc1cc(CO)ccc1O [Vanillyl alcohol] .
output: 79 (1) %

input: Please report the recorded % of control metabolism (SD, n = 3), 7-HFC glucuronidation for Oc1cc(O)c2c(c1)O[C@H](c1cc(O)c(O)c(O)c1)[C@H](O)C2 [Epigallocatechin] .
output: 77 (1) %

input: Please report the recorded % of control metabolism (SD, n = 3), 7-HFC glucuronidation for COc1ccc2c(c1)c(CC(=O)O)c(C)n2C(=O)c1ccc(Cl)cc1 [Indomethacin, reference compound] .
output: 82 (0) %

input: Please report the recorded % of control metabolism (SD, n = 3), 7-HFC glucuronidation for CC(=O)OC/C=C(C)/C=C/C=C(C)/C=C/C1=C(C)CCCC1(C)C [Retinyl acetate] .
output: 72 (1) %

input: Please report the recorded % of control metabolism (SD, n = 3), 7-HFC glucuronidation for CC/C(=C(/CC)c1ccc(O)cc1)c1ccc(O)cc1 [Diethylstilbestrol, reference compound] .
output: 11 (1) %

input: Please report the recorded % of control metabolism (SD, n = 3), 7-HFC glucuronidation for CC1=C(/C=C/C(C)=C/C=C/C(C)=C/CO)C(C)(C)CCC1 [Retinol] .
output: 59 (1) %

input: Please report the recorded % of control metabolism (SD, n = 3), 7-HFC glucuronidation for Cc1cc(=O)oc2cc(O)ccc12 [4-Methylumbelliferone, reference compound] .
output: 78 (1) %

Provenance of the data: patent US20030215462A1
